- system under test: human GLP-1 receptor (human, UniProt P43220 24-463)
- assay comment: cell-based or functional assay
Where no end group is shown, it is not given here. [ ]: non-standard residue; d: D form. Bip(2'-Et-4'-OMe) = CCc1cc(OC)ccc1-c1ccc(C[C@H](N)C(=O)O)cc1; αMePhe(2,6-F2) = C[C@](N)(Cc1c(F)cccc1F)C(=O)O; αMePhe(2-F) = C[C@](N)(Cc1ccccc1F)C(=O)O; αMeBip(OMe) = alpha-methylated Bip(OMe); hhPhe = N[C@@H](CCCc1ccccc1)C(=O)O; αMeD = C[C@](N)(CC(=O)O)C(=O)O; αMeAPPA = not defined here; αMeS = C[C@](N)(CO)C(=O)O; Aib = CC(C)(N)C(=O)O
Item-by-item account of cAMP release, % activity with respect to control, at 100 nM

Below, 6 binders whose answers are already recorded.
# binder, result
data = [
    ("VH[Aib]EGTFTSD[Bip(2'-Et-4'-OMe)][αMeAPPA] (not fully specified (C-terminus); printed as VH-Aib-EGTFTSD-Bip(OMe)-(αMe-APPA); reading uncertain) [Seq. ID. No. 89]", "99 % of control"),
    ("VHAQGT[αMePhe(2-F)]T[αMeS]D[αMeBip(OMe)][αMeAPPA] (not fully specified (C-terminus); printed as VHAQGT-(αMe-2FPhe)-T-(αMe-Ser)-D-(αMe-Bip(OMe))-(αMe-APPA); reading uncertain) [Seq. ID. No. 166]", "89 % of control"),
    ("VVHAEGT[αMePhe(2-F)]TSD[αMeBip(OMe)][hhPhe]-NH2 [Seq. ID. No. 218]", "89 % of control"),
    ("VH[Aib]QGTFTSD[αMeBip(OMe)][hhPhe]-NH2 [Seq. ID. No. 7]", "92 % of control"),
    ("VHAQGT[αMePhe(2-F)]TSD[αMeBip(OMe)][αMeAPPA] (not fully specified (C-terminus); printed as VHAQGT-(αMe-2FPhe)-TSD-(αMe-Bip(OMe))-(αMe-APPA); reading uncertain) [Seq. ID. No. 142]", "98 % of control"),
    ("VHAQGT[αMePhe(2-F)]TSD[αMeBip(OMe)][hhPhe] (not fully specified (C-terminus); printed as VHAQGT-(αMe-2FPhe)-TSD-(αMe-Bip(OMe))-(APPA)) [Seq. ID. No. 18]", "99 % of control"),
]

Incoming: Report cAMP release, % activity with respect to control, at 100 nM for VHSEGT[αMePhe(2,6-F2)]T[αMeS]D[αMeBip(OMe)][αMeAPPA] (not fully specified (C-terminus); reading uncertain) [Seq. ID. No. 177] please.
Outgoing: 99 % of control

Incoming: # query: cAMP release, % activity with respect to control, at 100 nM of entry VH[Aib]EGT[αMePhe(2,6-F2)]TS[αMeD][αMeBip(OMe)][hhPhe] (not fully specified (C-terminus)) [Seq. ID. No. 79]
Outgoing: 99 % of control

Incoming: Any idea what its cAMP release, % activity with respect to control, at 100 nM is? The binder is VHSEGTFTSD[αMeBip(OMe)][hhPhe] (not fully specified (C-terminus); printed as VHSEGTFTSD-(αMe-Bip(OMe))-(APPA)) [Seq. ID. No. 11]
Outgoing: 89 % of control

# credit: patent US20120264685A1
